# system: T1, monkey C5-mmh (monkey, UniProt P01031 19-1676 (human entry), limits assumed)
# T1 construct: Recombinant monkey C5 with a C-terminal myc-myc-hexahistidine tag
# T1 chain: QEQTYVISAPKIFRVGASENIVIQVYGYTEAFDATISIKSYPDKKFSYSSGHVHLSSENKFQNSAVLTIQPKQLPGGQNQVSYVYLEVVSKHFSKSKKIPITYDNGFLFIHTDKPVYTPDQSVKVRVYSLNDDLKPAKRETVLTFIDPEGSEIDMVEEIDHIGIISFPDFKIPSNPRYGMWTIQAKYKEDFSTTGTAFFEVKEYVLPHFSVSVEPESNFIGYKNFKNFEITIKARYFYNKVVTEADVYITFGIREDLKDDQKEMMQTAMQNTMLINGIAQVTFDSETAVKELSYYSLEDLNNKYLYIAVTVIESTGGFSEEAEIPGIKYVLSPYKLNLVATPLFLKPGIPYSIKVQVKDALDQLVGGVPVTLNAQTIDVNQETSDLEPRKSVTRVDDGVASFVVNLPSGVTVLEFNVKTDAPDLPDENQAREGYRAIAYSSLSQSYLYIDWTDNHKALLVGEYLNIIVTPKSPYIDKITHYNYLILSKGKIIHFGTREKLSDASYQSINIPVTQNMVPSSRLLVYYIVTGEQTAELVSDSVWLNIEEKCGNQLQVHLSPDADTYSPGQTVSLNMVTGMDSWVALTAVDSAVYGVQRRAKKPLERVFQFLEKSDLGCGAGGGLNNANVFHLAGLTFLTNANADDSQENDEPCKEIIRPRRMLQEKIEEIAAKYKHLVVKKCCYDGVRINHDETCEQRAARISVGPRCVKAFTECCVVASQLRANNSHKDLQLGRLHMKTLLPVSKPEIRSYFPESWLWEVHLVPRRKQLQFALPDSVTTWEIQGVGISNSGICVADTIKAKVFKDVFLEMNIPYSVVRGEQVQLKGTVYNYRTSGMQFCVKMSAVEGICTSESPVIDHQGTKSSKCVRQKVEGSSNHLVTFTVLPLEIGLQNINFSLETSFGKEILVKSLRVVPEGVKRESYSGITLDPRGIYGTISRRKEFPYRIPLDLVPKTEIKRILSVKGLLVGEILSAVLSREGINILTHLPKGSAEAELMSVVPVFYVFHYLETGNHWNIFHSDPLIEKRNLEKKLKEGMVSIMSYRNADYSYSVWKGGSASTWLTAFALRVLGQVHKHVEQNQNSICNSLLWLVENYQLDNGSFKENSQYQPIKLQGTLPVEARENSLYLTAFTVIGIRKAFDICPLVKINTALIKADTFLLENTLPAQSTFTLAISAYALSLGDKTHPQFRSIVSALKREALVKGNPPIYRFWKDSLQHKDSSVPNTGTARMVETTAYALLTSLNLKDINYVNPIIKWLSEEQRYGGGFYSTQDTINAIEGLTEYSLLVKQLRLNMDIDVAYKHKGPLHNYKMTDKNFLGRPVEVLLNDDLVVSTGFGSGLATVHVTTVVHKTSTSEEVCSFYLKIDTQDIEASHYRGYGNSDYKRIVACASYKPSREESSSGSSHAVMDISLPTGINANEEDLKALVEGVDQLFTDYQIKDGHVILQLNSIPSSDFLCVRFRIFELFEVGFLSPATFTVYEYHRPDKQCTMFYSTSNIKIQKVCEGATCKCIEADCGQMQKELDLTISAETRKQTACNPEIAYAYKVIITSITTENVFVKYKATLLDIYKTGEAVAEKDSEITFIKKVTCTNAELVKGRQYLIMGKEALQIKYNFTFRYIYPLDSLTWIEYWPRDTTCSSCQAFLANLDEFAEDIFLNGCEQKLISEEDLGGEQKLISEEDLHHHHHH
# measurementNotes: SPR, mAb captured via anti-hFc, 37C
propertyName: log10(koff) (log10 of the value in s⁻¹)
Form field - Quantity: koff; Unit: s⁻¹; Scale: log10

log10(koff) for H4H12167P (antibody, human IgG4, V domains shown, Human IgG4 Fc with S108P hinge mutation (H4H)) VH: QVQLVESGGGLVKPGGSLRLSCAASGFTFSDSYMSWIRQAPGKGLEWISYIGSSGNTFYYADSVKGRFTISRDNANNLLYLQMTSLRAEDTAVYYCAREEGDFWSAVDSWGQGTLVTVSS VL: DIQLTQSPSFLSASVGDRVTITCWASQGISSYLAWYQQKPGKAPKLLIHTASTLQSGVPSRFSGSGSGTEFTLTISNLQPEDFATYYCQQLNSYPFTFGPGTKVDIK ? -3.54

# query: log10(koff) of entry H4H12166P2 (antibody, human IgG4, V domains shown, Histidine-mutated CDR variant of H4H12166P; human IgG4 Fc with S108P) VH: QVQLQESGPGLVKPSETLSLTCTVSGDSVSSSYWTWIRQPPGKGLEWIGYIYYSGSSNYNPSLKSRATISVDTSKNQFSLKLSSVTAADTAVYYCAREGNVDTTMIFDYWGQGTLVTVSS VL: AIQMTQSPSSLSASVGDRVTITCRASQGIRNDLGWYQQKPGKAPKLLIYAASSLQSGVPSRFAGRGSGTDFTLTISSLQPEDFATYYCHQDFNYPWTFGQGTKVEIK -2.53

Look at this binder and give its reported log10(koff). H4H11683N (antibody, V domains shown, also called H2M11683N) VH: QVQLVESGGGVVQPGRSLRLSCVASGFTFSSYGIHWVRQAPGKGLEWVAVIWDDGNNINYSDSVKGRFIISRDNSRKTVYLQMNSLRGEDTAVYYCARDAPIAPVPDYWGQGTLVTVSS VL: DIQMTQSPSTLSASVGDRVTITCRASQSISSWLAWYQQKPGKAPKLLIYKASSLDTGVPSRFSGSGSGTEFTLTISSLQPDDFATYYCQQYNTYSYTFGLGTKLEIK -2.94

What value of measured log10(koff) is listed for H4H12166P4 (antibody, human IgG4, V domains shown, Histidine-mutated CDR variant of H4H12166P; human IgG4 Fc with S108P) VH: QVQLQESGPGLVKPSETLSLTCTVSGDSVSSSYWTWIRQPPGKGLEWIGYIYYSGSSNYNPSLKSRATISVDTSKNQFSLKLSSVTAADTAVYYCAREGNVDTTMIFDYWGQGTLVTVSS VL: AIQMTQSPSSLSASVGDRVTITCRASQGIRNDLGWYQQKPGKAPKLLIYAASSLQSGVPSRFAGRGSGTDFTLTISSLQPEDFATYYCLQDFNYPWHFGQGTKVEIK ? -2.74

// lookup log10(koff) for H4H12166P6 (antibody, human IgG4, V domains shown, Histidine-mutated CDR variant of H4H12166P; human IgG4 Fc with S108P) VH: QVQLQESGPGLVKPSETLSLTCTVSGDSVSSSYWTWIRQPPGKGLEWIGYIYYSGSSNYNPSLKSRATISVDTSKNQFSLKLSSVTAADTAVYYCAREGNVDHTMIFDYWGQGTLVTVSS VL: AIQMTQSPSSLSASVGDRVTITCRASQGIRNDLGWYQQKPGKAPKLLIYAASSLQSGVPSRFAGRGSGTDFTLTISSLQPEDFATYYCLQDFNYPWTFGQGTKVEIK -2.63
